study_target: T1, corticotropin releasing factor 2 receptor
T1 sequence (Q13324 whole entry, species assumed, looked up): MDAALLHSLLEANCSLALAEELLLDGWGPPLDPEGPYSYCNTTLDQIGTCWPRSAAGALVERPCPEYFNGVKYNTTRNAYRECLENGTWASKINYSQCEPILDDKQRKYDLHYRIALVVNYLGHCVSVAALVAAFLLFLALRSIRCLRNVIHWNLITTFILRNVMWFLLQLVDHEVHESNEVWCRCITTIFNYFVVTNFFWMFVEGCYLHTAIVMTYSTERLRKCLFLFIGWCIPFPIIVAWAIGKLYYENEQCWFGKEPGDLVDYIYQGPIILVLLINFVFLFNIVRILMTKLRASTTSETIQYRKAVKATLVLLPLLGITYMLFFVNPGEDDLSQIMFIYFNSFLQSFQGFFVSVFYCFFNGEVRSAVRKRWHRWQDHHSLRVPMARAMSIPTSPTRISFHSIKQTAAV
test_method_notes: cell-based or functional assay
Ends that are not written are not given here.
binders and their reported CRF2R EC50
quantity_name: CRF2R EC50 (nM)

[[record]]
binder = "ZGPPISIDLPFYLLRKMIEIEKQEKEKQQAANNALLLATI (C-terminal amide) [SEQ ID NO 231]"
unit_abbrev = "nM"
test_result = 5.9

[[record]]
binder = "Ac-IVLSLDVPIGLLQILLEQARARAAREQATTNARILARV-NH2 [SEQ ID NO 354]"
unit_abbrev = "nM"
test_result = 6.48

[[record]]
binder = "NDDPPISIDLPFHLLRNMIEMARIENEREQAGLNAKYLAEV-NH2 [SEQ ID NO 262]"
unit_abbrev = "nM"
test_result = 100

[[record]]
binder = "DNPSLSIDLPLLLLRTLLELARTQSQRERAEQNARIFARV-NH2 [SEQ ID NO 340]"
unit_abbrev = "nM"
test_result = 7.99

[[record]]
binder = "ZGPPISIDLPLHLLRKMIEIEKQEKEKQQATTNARLLDRV (C-terminal amide) [SEQ ID NO 239]"
unit_abbrev = "nM"
test_result = 13.2

[[record]]
binder = "ZGPPISIDLPTWLLRKMIEIEKQEKEKQQAANNARLLARI (C-terminal amide) [SEQ ID NO 292]"
unit_abbrev = "nM"
test_result = 100

[[record]]
binder = "NDDPPISIDLPLQLLRNMIEMARIENEREQAGLNAKYLAEV-NH2 [SEQ ID NO 270]"
unit_abbrev = "nM"
test_result = 100

[[record]]
binder = "ZGPPISIDLPFQLLRKVIEIEKQEKEKQQAANNANLLANI (C-terminal amide) [SEQ ID NO 275]"
unit_abbrev = "nM"
test_result = 46.6

[[record]]
binder = "DNPSLSIDLPLILLRTLLELARTQSQRERAEQNARIFARV-NH2 [SEQ ID NO 330]"
unit_abbrev = "nM"
test_result = 6

[[record]]
binder = "ZGPPISIDLPFQLLRKVIEIEKQEKEKQQAANNAQLLAQI (C-terminal amide) [SEQ ID NO 276]"
unit_abbrev = "nM"
test_result = 22.1

[[record]]
binder = "IVLSLDVPIGLLQILLEQEKARAAREQATTNARILARV-NH2 [SEQ ID NO 325]"
unit_abbrev = "nM"
test_result = 11.7

[[record]]
binder = "ZGPPISIDLPQILLRKVIEIEKQEKEKQQAANNARLLARI (C-terminal amide) [SEQ ID NO 294]"
unit_abbrev = "nM"
test_result = 100

